A set of compounds tested on Aldo-keto reductase family 1 member B1 (Homo sapiens, UniProt P15121), with measured pIC50:
By convention, pIC50 is the negative base-10 log of a molar concentration.

GET pIC50 | system: Aldo-keto reductase family 1 member B1 (Homo sapiens, UniProt P15121) | item: COc1ccc(/N=c2\oc3cc(O)ccc3cc2C(=O)Nc2ccccn2)cc1 7.96

Given COc1ccc(/N=c2\oc3cc(O)ccc3cc2C(=O)Nc2cccc(C)n2)cc1OC , report its pIC50 on Aldo-keto reductase family 1 member B1 (Homo sapiens, UniProt P15121). 7.47

---

Recorded measurements of pKi, one per entry
- Measured on: UniProtKB O60218
- Sequence (O60218 whole entry): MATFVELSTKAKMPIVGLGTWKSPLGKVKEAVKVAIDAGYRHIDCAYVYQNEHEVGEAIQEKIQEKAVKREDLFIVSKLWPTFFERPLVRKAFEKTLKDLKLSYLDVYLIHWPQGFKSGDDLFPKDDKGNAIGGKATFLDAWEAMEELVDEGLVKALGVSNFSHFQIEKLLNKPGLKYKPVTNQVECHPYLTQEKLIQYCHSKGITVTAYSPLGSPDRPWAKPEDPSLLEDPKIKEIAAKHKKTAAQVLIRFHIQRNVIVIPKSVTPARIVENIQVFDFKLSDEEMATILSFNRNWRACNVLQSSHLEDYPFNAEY
- Method summary: Inhibition of dehydrogenase activity of N-terminal 6His-tagged AKR1B10 expressed in Escherichia coli BL21(DE3) assessed as inhibition of geraniol dehydrogenation in presence of saturating concentration of NADP+
Scale note: pKi = -log10(concentration in M).

Smiles input | Measured on | Result
COc1ccc(/N=c2\oc3cc(O)ccc3cc2C(=O)Nc2ccccn2)c(OC)c1 | UniProtKB O60218 | 7.92
COc1ccc(OC)c(/N=c2\oc3cc(O)ccc3cc2C(=O)Nc2ccccn2)c1 | UniProtKB O60218 | 7.80
COc1ccc(/N=c2\oc3cc(O)ccc3cc2C(=O)Nc2ccccn2)cc1 | UniProtKB O60218 | 8.57

Please turn your attention to the following entry.
Please look at COc1ccc(/N=c2\oc3cc(O)ccc3cc2C(=O)Nc2cccc(C)n2)cc1OC and tell me its recorded pKi on UniProtKB O60218. 7.62
